Recorded difference in %Control from compound Ib at 1 µM values for a group of compounds are listed next.
molecular target: ABL1(M351T)-phosphorylated (Homo sapiens, UniProt P00519, M351T); construct: purchased Eurofins DiscoverX KINOMEscan (scanTK); assay: KINOMEscan ScanTK; assay type: binding; settings: @1000nM
readout name: difference in %Control from compound Ib at 1 µM (%)

Cc1cnc(S(C)(=O)=O)nc1N1CCCC(n2nc(-c3ccc(Oc4ccccc4)cc3)c3c(N)ncnc32)C1 (stereo not shown) [Compound 8a]; 0
CNC(=O)c1cnc(S(C)(=O)=O)nc1N1CCCC(n2nc(-c3ccc(Oc4ccccc4)cc3)c3c(N)ncnc32)C1 (stereo not shown) [Compound 8d]; 9
CCOC(=O)c1cnc(S(C)(=O)=O)nc1N1CCC[C@@H](n2nc(-c3ccc(Oc4ccccc4)cc3)c3c(N)ncnc32)C1 [Compound 8c]; 12
COC(=O)c1cnc(S(C)(=O)=O)nc1N1CCCC(n2nc(-c3ccc(Oc4ccccc4)cc3)c3c(N)ncnc32)C1 (stereo not shown) [Compound 8b]; 1
